Molecular target: K02D7.2 (K02D7.2) (Caenorhabditis elegans)
Sequence: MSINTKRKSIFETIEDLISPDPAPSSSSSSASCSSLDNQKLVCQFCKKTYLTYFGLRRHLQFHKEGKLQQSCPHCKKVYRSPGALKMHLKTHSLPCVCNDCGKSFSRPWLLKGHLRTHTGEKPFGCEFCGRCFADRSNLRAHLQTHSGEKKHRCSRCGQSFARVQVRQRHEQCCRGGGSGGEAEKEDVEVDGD
Recorded Metric: binding signal (PBM E-score (-0.5 to 0.5))
Reply with just the number.

Please review the following examples before continuing.
AACAGGTG (double strand) [8-mer AACAGGTG]
0.488
CACCTGTA (double strand) [8-mer CACCTGTA]
0.457
CACCTGTC (double strand) [8-mer CACCTGTC]
0.456
ACACCTGT (double strand) [8-mer ACACCTGT]
0.468
AGCAGGTG (double strand) [8-mer AGCAGGTG]
0.457

Entry under review: ACAGGTGC (double strand) [8-mer ACAGGTGC] . Reported binding signal (PBM E-score (-0.5 to 0.5))? 0.477

Entry under review: ACAGGTGG (double strand) [8-mer ACAGGTGG] . Reported binding signal (PBM E-score (-0.5 to 0.5))? 0.467

---

System: dmd-3 (Y43F8C.10) (Caenorhabditis elegans)
Sequence: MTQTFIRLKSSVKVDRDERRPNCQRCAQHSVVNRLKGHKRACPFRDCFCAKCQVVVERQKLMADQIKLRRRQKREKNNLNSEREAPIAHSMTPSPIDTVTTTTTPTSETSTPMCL
Overview of reported binding signal (PBM E-score (-0.5 to 0.5)) across a group of sequences:
Reply with just the number.

ATGTTTCA (double strand) [8-mer ATGTTTCA]
0.479
AGAAACAT (double strand) [8-mer AGAAACAT]
0.466
AATGTTTC (double strand) [8-mer AATGTTTC]
0.482
AATGTTGC (double strand) [8-mer AATGTTGC]
0.465

Entry under review: ATGTTGCA (double strand) [8-mer ATGTTGCA] . Reported binding signal (PBM E-score (-0.5 to 0.5))? 0.459

---

Overview of reported binding signal (PBM E-score (-0.5 to 0.5)) across a group of sequences:
Molecular target: K11D2.4 (K11D2.4) (Caenorhabditis elegans) (UniProt G5EBU1)
Sequence: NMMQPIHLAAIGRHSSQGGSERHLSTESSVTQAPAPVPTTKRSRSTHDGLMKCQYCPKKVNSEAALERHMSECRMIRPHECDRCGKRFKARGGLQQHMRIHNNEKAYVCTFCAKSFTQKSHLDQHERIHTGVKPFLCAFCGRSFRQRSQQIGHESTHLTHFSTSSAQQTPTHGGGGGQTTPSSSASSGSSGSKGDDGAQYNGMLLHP
Reply with just the number.

Please review the following examples before continuing.
ATAAAAAA (double strand) [8-mer ATAAAAAA]
0.498
AAAAAAAG (double strand) [8-mer AAAAAAAG]
0.498
CAAAAAAA (double strand) [8-mer CAAAAAAA]
0.498
AGAAAAAA (double strand) [8-mer AGAAAAAA]
0.498
AATAAAAA (double strand) [8-mer AATAAAAA]
0.496

Entry under review: AAAAAAAA (double strand) [8-mer AAAAAAAA] . Reported binding signal (PBM E-score (-0.5 to 0.5))? 0.5

---

Here we list sequences with their recorded binding signal (PBM E-score (-0.5 to 0.5)) when tested on ZC328.2 (ZC328.2) (Caenorhabditis elegans).
Reply with just the number.

Please review the following examples before continuing.
CCCACGCG (double strand) [8-mer CCCACGCG]
0.49
CCCCCCGC (double strand) [8-mer CCCCCCGC]
0.486
CCCCCACG (double strand) [8-mer CCCCCACG]
0.48
CCGCCCAC (double strand) [8-mer CCGCCCAC]
0.489
ACGCCCCC (double strand) [8-mer ACGCCCCC]
0.486

Query for ZC328.2 (ZC328.2) (Caenorhabditis elegans): what binding signal (PBM E-score (-0.5 to 0.5)) does the record show for CGCCCCCC (double strand) [8-mer CGCCCCCC] ? 0.487

Query for ZC328.2 (ZC328.2) (Caenorhabditis elegans): what binding signal (PBM E-score (-0.5 to 0.5)) does the record show for CCCACGCA (double strand) [8-mer CCCACGCA] ? 0.497

---

Target: Y51H4A.4 (Y51H4A.4) (Caenorhabditis elegans) (UniProt Q9NAE4)
Sequence: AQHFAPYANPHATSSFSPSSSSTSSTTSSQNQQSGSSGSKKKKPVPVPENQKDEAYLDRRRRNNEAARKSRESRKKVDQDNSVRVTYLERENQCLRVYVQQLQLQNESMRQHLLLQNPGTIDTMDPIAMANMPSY
Overview of reported binding signal (PBM E-score (-0.5 to 0.5)) across a group of sequences:
Reply with just the number.

TGACGTAA (double strand) [8-mer TGACGTAA]
0.454

Entry under review: TTACATAA (double strand) [8-mer TTACATAA] . Reported binding signal (PBM E-score (-0.5 to 0.5))? 0.489

Entry under review: TTATATAA (double strand) [8-mer TTATATAA] . Reported binding signal (PBM E-score (-0.5 to 0.5))? 0.451

Entry under review: ATTACGTA (double strand) [8-mer ATTACGTA] . Reported binding signal (PBM E-score (-0.5 to 0.5))? 0.459

Entry under review: ACGTAATA (double strand) [8-mer ACGTAATA] . Reported binding signal (PBM E-score (-0.5 to 0.5))? 0.472

Entry under review: TTACGTAA (double strand) [8-mer TTACGTAA] . Reported binding signal (PBM E-score (-0.5 to 0.5))? 0.498

Entry under review: TTACGCAA (double strand) [8-mer TTACGCAA] . Reported binding signal (PBM E-score (-0.5 to 0.5))? 0.487

---

Target: end-3 (F58E10.5) (Caenorhabditis elegans)
Sequence: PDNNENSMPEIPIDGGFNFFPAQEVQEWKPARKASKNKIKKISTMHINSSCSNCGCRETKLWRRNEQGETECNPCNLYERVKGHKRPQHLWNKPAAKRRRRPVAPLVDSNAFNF
Overview of reported binding signal (PBM E-score (-0.5 to 0.5)) across a group of sequences:
Reply with just the number.

Please review the following examples before continuing.
AGAGATAA (double strand) [8-mer AGAGATAA]
0.492
TCTTATCA (double strand) [8-mer TCTTATCA]
0.491
GGAGATAA (double strand) [8-mer GGAGATAA]
0.49
AGATAAGA (double strand) [8-mer AGATAAGA]
0.496
AGATAACA (double strand) [8-mer AGATAACA]
0.488

Entry under review: ATCTTATC (double strand) [8-mer ATCTTATC] . Reported binding signal (PBM E-score (-0.5 to 0.5))? 0.497

Entry under review: GAGATAAC (double strand) [8-mer GAGATAAC] . Reported binding signal (PBM E-score (-0.5 to 0.5))? 0.487

Entry under review: CTTATCTA (double strand) [8-mer CTTATCTA] . Reported binding signal (PBM E-score (-0.5 to 0.5))? 0.493

Entry under review: CAGATAAG (double strand) [8-mer CAGATAAG] . Reported binding signal (PBM E-score (-0.5 to 0.5))? 0.491

---

Overview of reported binding signal (PBM E-score (-0.5 to 0.5)) across a group of sequences:
Molecular target: Y48G1C.6 (Y48G1C.6) (Caenorhabditis elegans) (UniProt Q9N3P2)
Sequence: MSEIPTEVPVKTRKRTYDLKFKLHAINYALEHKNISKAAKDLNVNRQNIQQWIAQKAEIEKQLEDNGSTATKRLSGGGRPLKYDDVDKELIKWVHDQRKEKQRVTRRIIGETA
Reply with just the number.

Please review the following examples before continuing.
ACTTGCAC (double strand) [8-mer ACTTGCAC]
0.495
ACTTGCAT (double strand) [8-mer ACTTGCAT]
0.493
GTCTTGCA (double strand) [8-mer GTCTTGCA]
0.494

Okay, now this sequence:
Entry under review: GTGCAAGA (double strand) [8-mer GTGCAAGA] . Reported binding signal (PBM E-score (-0.5 to 0.5))? 0.494

---

Overview of reported binding signal (PBM E-score (-0.5 to 0.5)) across a group of sequences:
Target: lsy-27 (F47H4.1) (Caenorhabditis elegans) (UniProt O45526)
Sequence: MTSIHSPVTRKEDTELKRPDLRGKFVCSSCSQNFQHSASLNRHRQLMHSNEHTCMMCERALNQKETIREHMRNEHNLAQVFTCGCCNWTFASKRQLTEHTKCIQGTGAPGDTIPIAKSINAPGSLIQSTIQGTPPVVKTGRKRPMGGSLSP
Reply with just the number.

AGCTTCAT (double strand) [8-mer AGCTTCAT]
0.494
AAGCTTTA (double strand) [8-mer AAGCTTTA]
0.49
AGCTTCAG (double strand) [8-mer AGCTTCAG]
0.491
AAGCTTAA (double strand) [8-mer AAGCTTAA]
0.493
GGCTTCAC (double strand) [8-mer GGCTTCAC]
0.49
GAAGCTTC (double strand) [8-mer GAAGCTTC]
0.496
AAAGCTTT (double strand) [8-mer AAAGCTTT]
0.491
AGCTTCAC (double strand) [8-mer AGCTTCAC]
0.493
GCTTAAGC (double strand) [8-mer GCTTAAGC]
0.494
AAAGCTTC (double strand) [8-mer AAAGCTTC]
0.492

Query for lsy-27 (F47H4.1) (Caenorhabditis elegans) (UniProt O45526): what binding signal (PBM E-score (-0.5 to 0.5)) does the record show for GAAGCTTA (double strand) [8-mer GAAGCTTA] ? 0.493

Query for lsy-27 (F47H4.1) (Caenorhabditis elegans) (UniProt O45526): what binding signal (PBM E-score (-0.5 to 0.5)) does the record show for AAGCTTCA (double strand) [8-mer AAGCTTCA] ? 0.497

Query for lsy-27 (F47H4.1) (Caenorhabditis elegans) (UniProt O45526): what binding signal (PBM E-score (-0.5 to 0.5)) does the record show for AAGCTTCT (double strand) [8-mer AAGCTTCT] ? 0.496

Query for lsy-27 (F47H4.1) (Caenorhabditis elegans) (UniProt O45526): what binding signal (PBM E-score (-0.5 to 0.5)) does the record show for GCTTCACC (double strand) [8-mer GCTTCACC] ? 0.491

Query for lsy-27 (F47H4.1) (Caenorhabditis elegans) (UniProt O45526): what binding signal (PBM E-score (-0.5 to 0.5)) does the record show for AGCTTCTG (double strand) [8-mer AGCTTCTG] ? 0.491
